The reported measurements were obtained from ChEMBL document CHEMBL1142692.

# test_target: UniProt:P35372
# Sequence (P35372 whole entry): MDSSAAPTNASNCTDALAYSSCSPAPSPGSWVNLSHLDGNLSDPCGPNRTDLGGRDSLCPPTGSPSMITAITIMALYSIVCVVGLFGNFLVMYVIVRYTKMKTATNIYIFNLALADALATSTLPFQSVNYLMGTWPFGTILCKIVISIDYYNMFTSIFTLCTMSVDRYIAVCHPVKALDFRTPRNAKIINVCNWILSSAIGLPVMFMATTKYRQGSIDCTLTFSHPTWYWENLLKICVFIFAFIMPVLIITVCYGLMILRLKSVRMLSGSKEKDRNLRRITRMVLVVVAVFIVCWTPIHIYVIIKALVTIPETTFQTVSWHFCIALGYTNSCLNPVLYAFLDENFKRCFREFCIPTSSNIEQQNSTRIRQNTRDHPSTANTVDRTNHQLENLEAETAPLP
# procedure_text: Percent inhibition of [3H]DAMGO binding to rat brain mu-opioid receptor at 100 uM
# conditions_used: target entry is the homologue from another species
Recorded inhibition by entry

# structure_smiles_string, unit_symbol, inhibition
measured = [
    ("CN1CCC(C#N)(c2ccc(Cl)c(Cl)c2)CC1", "%", 46),
    ("CN1CCC(C#N)(c2ccc(Cl)cc2)CC1", "%", 51),
    ("CN1CCC(C#N)(c2ccc3ccccc3c2)CC1", "%", 61),
    ("CN1CCC(C#N)(c2ccc(I)cc2)CC1", "%", 61),
    ("CN1CCC(C#N)(c2ccc(F)cc2)CC1", "%", 15),
]
